Below is a list of entries, each paired with its recorded normalized activity (activation) value.
- Subject of test: F-box/WD repeat-containing protein 7 (Homo sapiens) (UniProt Q969H0)
- Sequence (Q969H0 whole entry, looked up): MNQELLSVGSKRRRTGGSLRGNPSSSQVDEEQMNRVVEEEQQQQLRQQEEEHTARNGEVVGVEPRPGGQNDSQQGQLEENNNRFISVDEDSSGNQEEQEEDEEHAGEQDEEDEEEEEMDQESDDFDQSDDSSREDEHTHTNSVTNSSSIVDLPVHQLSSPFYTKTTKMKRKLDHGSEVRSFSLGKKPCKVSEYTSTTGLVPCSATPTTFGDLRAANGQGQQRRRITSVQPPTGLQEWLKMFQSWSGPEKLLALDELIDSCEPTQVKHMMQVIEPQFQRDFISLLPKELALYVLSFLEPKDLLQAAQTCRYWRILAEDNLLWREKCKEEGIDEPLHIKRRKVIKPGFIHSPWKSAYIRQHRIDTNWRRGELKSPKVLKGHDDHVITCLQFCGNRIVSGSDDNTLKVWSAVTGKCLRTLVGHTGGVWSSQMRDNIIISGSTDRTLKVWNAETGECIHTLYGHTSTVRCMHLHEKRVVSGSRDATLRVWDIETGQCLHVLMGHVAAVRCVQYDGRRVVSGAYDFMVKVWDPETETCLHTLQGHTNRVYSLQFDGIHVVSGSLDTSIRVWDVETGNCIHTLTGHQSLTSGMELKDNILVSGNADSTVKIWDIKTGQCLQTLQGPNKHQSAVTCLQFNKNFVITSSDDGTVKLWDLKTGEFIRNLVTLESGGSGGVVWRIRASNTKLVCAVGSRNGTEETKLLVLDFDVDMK
- Test details: FBW7 E3 ligase activators, primary screen, biochemical, AlphaScreen, human (AID 1259310);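 note: purified mutant Fbw7 with reduced substrate affinity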
- Conditions: AlphaScreen FBW7–phospho-cyclin E peptide binding, activator screen; at 26.1 µM; hits give high values
The whole screen tested about 650,000 compounds, of which about 850 (0.13%) were called active. The sample as a whole holds a higher share of actives than the screen did.

N#Cc1c2c(c(-n3ccnc3)n3c1nc1ccccc13)CCC2 : 0.17% (inactive)
COc1cccc(C(=O)N2CCc3ccccc32)c1 : 0.05% (inactive)

Per the records, this compound ( `CC(C)c1ccc(OCC(=O)N/N=C/c2cccnc2)cc1` ) has normalized activity (activation) equal to -0.04% (inactive)

Per the records, this compound ( `COc1ccc(C2Nc3cccc4cccc(c34)N2)c(OC)c1OC` ) has normalized activity (activation) equal to 0.39% (inactive)
